system: Caco-2; test: cell viability relative to DMSO; higher = less toxic; conditions: 72 h; 100 nM
measurement.type: cell viability (%)
Give the value, in units of %, as a plain number.

compound: C=C1C[C@]23C[C@@]1(O)CC[C@H]2[C@@]12C=C[C@H](O)[C@@](C)(C(=O)O1)[C@H]2[C@@H]3C(=O)O
cell viability (%): 104
//
compound: COCCc1ccc(OCC(O)CNC(C)C)cc1 (centres undefined)
cell viability (%): 91.8
//
compound: c1ccc2c(-c3cnn4cc(-c5ccc(N6CCNCC6)cc5)cnc34)ccnc2c1
cell viability (%): 120
//
compound: O=C(NN1C(=O)[C@@H]2[C@@H]3C=C[C@@H]([C@H]4C[C@@H]34)[C@@H]2C1=O)c1ccc(C(F)(F)F)cc1
cell viability (%): 105
//
compound: CCOc1ccc2nc(SCCN3CCOCC3)[nH]c2c1
cell viability (%): 104
//
compound: [N-]=[N+]=N[C@]1(CO)O[C@@H](n2ccc(N)nc2=O)[C@H](O)[C@@H]1O
cell viability (%): 90.7

### Prompt Consider the compound shown here: C=C1/C(=C\C=C2/CCC[C@]3(C)[C@@H]([C@H](C)CCCC(C)(C)O)CC[C@@H]23)C[C@@H](O)C[C@@H]1O What is its recorded cell viability?
### Response 105

### Prompt Repeat with CC(=O)Nc1ccc(Cc2ccc(NC(C)=O)cc2)cc1
### Response 104

### Prompt Field entry: CCC1=C(C)CN(C(=O)NCCc2ccc(S(=O)(=O)NC(=O)N[C@H]3CC[C@H](C)CC3)cc2)C1=O [glimepiride]
### Response 98.9

----------
Entries and their cell viability values follow.
system: HepG2; test: cell viability relative to DMSO; higher = less toxic; settings: 72 h; 10000 nM
State just the number; it will be interpreted in %.

Field: example entries. Status: answers known.
compound: C=CC(=O)Nc1cc(Nc2nccc(-c3cn(C)c4ccccc34)n2)c(OC)cc1N(C)CCN(C)C
unit.of.measurement: %
cell viability: 6
//
compound: C[C@H]1CC[C@H](n2c3cnccc3c3cnc(Nc4ccc5c(n4)CCN(C(=O)CO)C5)nc32)CC1
unit.of.measurement: %
cell viability: 101
//
compound: NC(=O)c1nc(Nc2ccccc2)sc1NC(=O)C1CCCCC1
unit.of.measurement: %
cell viability: 88.5
//
compound: Cc1nc[nH]c1CCN
unit.of.measurement: %
cell viability: 91.9

### Prompt # cell viability lookup, item CC(N)C12CC3CC(CC(C3)C1)C2 (configuration not stated)
### Response 103

### Prompt Same for CN(C)CCOC(c1ccc(Cl)cc1)c1ccccn1 (configuration not stated)
### Response 99.6

### Prompt Ok, now O=C(NC[C@H]1CN(c2ccc(N3CCOCC3=O)cc2)C(=O)O1)c1ccc(Cl)s1
### Response 90.9

### Prompt Now try CS(=O)(=O)Nc1ccc(-c2coc3cc(OCc4cccc(C(=O)O)c4)ccc3c2=O)cc1 .
### Response 93.2

### Prompt Moving on to C[C@]12CC[C@@H]3c4ccc(OC(=O)N(CCCl)CCCl)cc4CC[C@H]3[C@@H]1CC[C@@H]2OP(=O)(O)O [estramustine-phosphate]
### Response 104

### Prompt Ok, now Cc1cc(C)c(Nc2ccnc(Nc3ccc(C#N)cc3)n2)c(C)c1
### Response 17.3
